System: SK-OV-3 ovarian
experimental_protocol: NCI-60 one-dose screen, 48 h (100 = growth as untreated, 0 = no growth, -100 = all killed)
run_parameters: 10 µM
Compounds without any hit were thinned out: in the full panel of roughly 83,000, 20% have a hit.
So basically every entry gets a class from its growth, ranges being low band: < 40%; middle band: ≥ 40% and < 90%; high band: ≥ 90%

>  <compound>
Cc1cc(=O)oc2cc(OCCCCOc3ccc(/C=C/C(=O)Nc4cccc(Cl)c4)cc3)ccc12

>  <label>
high band

$$$$
>  <compound>
O=C(c1ccc(Cl)cc1)C1[C@H](c2ccc(Br)cc2)[C@@H](c2ccccc2)NC12C(=O)Nc1ccc(Br)cc12 (stereo partly specified)

>  <label>
low band

$$$$
>  <compound>
O=c1[nH]c2ccccc2cc1CSc1ccc(Nc2nccc(-c3ccc(C(F)(F)F)cc3)n2)cc1

>  <label>
middle band

$$$$
>  <compound>
O=C(/C=C/Nc1ccc(F)cc1F)c1ccc2c(c1)Nc1ccccc1S2

>  <label>
high band

$$$$
>  <compound>
CCCCSc1nc(Nc2ccc(/C(C)=N/NC(N)=S)cc2)c(C#N)c(-c2ccc(F)cc2)n1

>  <label>
middle band

$$$$
>  <compound>
O=C(NO)c1ccc(CNc2nc(-c3ccccc3)c3ccccc3n2)cc1

>  <label>
low band

$$$$
>  <compound>
O=C(/C=C/Nc1ccccc1)c1ccc2c(c1)Nc1ccccc1S2

>  <label>
middle band

$$$$
>  <compound>
O=C1Nc2ccc(Cl)cc2/C1=C/c1ccc(OCc2ccc(Br)cc2F)cc1

>  <label>
low band

$$$$
>  <compound>
CNCc1cccc2c1OCCCCCC[C@@](C)(O)CC1(CC1)S(=O)(=O)c1ccc(cc1)-c1cnc(N)c(n1)C(=O)N2

>  <label>
low band

$$$$
>  <compound>
CN(C)CCNC(=O)OCCCCOc1cc(O)c2c(=O)cc(-c3ccccc3)oc2c1

>  <label>
high band

$$$$
>  <compound>
CO[C@H]1CSS[C@@H]1Cn1nc(-c2ccc(Oc3ccccc3)cc2)c2c(N)ncnc21

>  <label>
low band

$$$$
>  <compound>
Cc1cccc2cc(-c3cc(-c4ccccc4)nc(=O)[nH]3)c(Cl)nc12

>  <label>
high band

$$$$
>  <compound>
O=C1CCC(N2Cc3cc(CC(=O)Nc4ccc(N5CCCCC5)cc4)ccc3C2=O)C(=O)N1 (stereo unspecified)

>  <label>
middle band

$$$$

* * *

Tested on: NCI/ADR-RES ovarian
experimental_protocol: NCI-60 one-dose screen, 48 h (100 = growth as untreated, 0 = no growth, -100 = all killed)
run_parameters: 10 µM
Compounds without any hit were thinned out: in the full panel of roughly 83,000, 20% have a hit.
Tag: Fulfilled if measured growth is not below 20%, Not fulfilled if it is.

>  <smi>
O=C(CS(=O)(=O)c1oc(-c2ccc(Cl)cc2)nc1S(=O)(=O)c1ccccc1)N1CCCC1

>  <label>
Not fulfilled

$$$$
>  <smi>
C/C(=N\NC(N)=S)c1ccc(Nc2nc(SC(C)C)nc(-c3ccccc3)c2C#N)cc1

>  <label>
Fulfilled

$$$$
>  <smi>
Cc1ccc(-c2nc3ccc(C(=O)N=Nc4c(O)[nH]c5ccc(Br)cc45)cc3[nH]2)cc1

>  <label>
Fulfilled

$$$$
>  <smi>
O=C1NC(=NC23CC4CC(CC(C4)C2)C3)N/C1=C\c1ccc2ncsc2c1

>  <label>
Not fulfilled

$$$$
>  <smi>
O=C(Nc1ccc(OCc2ccccc2)cc1)Nc1ccc(Cl)c(C(F)(F)F)c1

>  <label>
Not fulfilled

$$$$
>  <smi>
CC(C)(C)c1ccc(NCc2cn(-c3ccc(C(=O)O)cc3)nc2-c2ccc(C#N)cc2)cc1

>  <label>
Not fulfilled

$$$$
>  <smi>
N#Cc1ccc(-c2nn(-c3ccc(C(=O)O)cc3)cc2CNc2cc(Cl)cc(Cl)c2)cc1

>  <label>
Not fulfilled

$$$$
>  <smi>
Cc1ccc(-c2nc3ccc(C(=O)N=Nc4c(O)[nH]c5ccc(Cl)cc45)cc3[nH]2)cc1

>  <label>
Fulfilled

$$$$
>  <smi>
N#Cc1c(-c2ccc(Cl)cc2)cc(-c2ccccc2)nc1OCc1ccccc1

>  <label>
Fulfilled

$$$$
>  <smi>
O=C(CN1CCN(c2ncnc3c2cnn3-c2ccccc2)CC1)Nc1nncs1

>  <label>
Not fulfilled

$$$$
>  <smi>
COc1ccc(C=CC(=O)c2ccc(-n3c(C)nc4c(cnn4-c4ccccc4)c3=O)cc2)cc1

>  <label>
Fulfilled

$$$$
>  <smi>
O=C(CSc1nnc(-c2c[nH]c3ccccc23)n1-c1ccccc1)Nc1ccc(C(=O)/C=C/c2cccc([N+](=O)[O-])c2)cc1

>  <label>
Fulfilled

$$$$
